# TARGET DESC: hROMK (human Kir1.1) (Homo sapiens (Human), UniProt P48048)
# Sequence (P48048 whole entry): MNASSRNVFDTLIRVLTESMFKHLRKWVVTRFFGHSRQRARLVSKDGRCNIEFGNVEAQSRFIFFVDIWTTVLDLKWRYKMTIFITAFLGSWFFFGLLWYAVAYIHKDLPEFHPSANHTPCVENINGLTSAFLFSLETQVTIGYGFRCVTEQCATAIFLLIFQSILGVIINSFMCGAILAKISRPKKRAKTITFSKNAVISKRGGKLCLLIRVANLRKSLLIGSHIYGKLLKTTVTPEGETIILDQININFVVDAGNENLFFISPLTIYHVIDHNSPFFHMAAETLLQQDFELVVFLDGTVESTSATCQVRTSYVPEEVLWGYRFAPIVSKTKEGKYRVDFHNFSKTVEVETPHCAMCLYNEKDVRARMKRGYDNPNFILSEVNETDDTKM
# TEST SUMMARY: cell-based
# Format: cell-based
# SETTINGS: whole-cell manual patch clamp, CHO T-Rex hROMK stable cell line, voltage step to -120 mV, Ba2+-subtracted hROMK current; read-out: ROMK EP IC50
pIC50: −log10 of the molar value.
Catalogue of molecules with associated pIC50

| CHEMICAL STRING | TARGET DESC | pIC50 |
| --- | --- | --- |
| Cc1c([C@@H]2CN(Cc3cnn(-c4ccc5oc(=O)n(C)c5c4)n3)C[C@H](CO)N2)ccc2c1COC2=O | hROMK (human Kir1.1) (Homo sapiens (Human), UniProt P48048) | 7.27 |
| Cc1ncn(-c2ncc(CN3CCN[C@H](c4ccc5c(c4C)COC5=O)C3)cn2)c1C | hROMK (human Kir1.1) (Homo sapiens (Human), UniProt P48048) | 7.72 |
| Cc1nc(-n2cc(CN3CCN[C@H](c4ccc5c(c4C)COC5=O)C3)cn2)ncc1C#N | hROMK (human Kir1.1) (Homo sapiens (Human), UniProt P48048) | 7.72 |
| COc1cc(-n2cnc(CN3CCN[C@H](c4ccc5c(c4C)COC5=O)C3)c2)ncc1C#N | hROMK (human Kir1.1) (Homo sapiens (Human), UniProt P48048) | 7.29 |
| Cc1cc(-n2cc(CN3C[C@@H](c4ccc5c(c4C)COC5=O)N[C@@H](C)C3)cn2)ccn1 | hROMK (human Kir1.1) (Homo sapiens (Human), UniProt P48048) | 7.77 |

###

# TARGET DESC: hROMK (human Kir1.1) (Homo sapiens (Human), UniProt P48048)
# TEST SUMMARY: cell-based
# SETTINGS: CHO T-Rex hROMK stable cell line; thallium flux; 10-point concentration response curve; read-out: Human ROMK Th Flux IC50
Doc: threshold 0.03 µM (exclusive). Items with IC50 beneath it return condition met; others return condition not met.

| COMPOUND | CLASS NAME |
| --- | --- |
| Cc1cc(-n2cc(CN3CC[C@@H](O)[C@H](c4ccc5c(c4C)COC5=O)C3)n(C)c2=O)ncc1C#N [Example 250-I] | condition met |
| Cc1c([C@@H]2CN(Cc3ccc(-n4cc(C#N)cn4)nc3)CCN2)ccc2c1COC2=O [Example 64-I] | condition met |
| Cc1cc(-n2cc(CN3C[C@@H](c4ccc5c(c4C)COC5=O)N[C@@H](C)C3)oc2=O)ncc1C#N [Example 117-I] | condition not met |
| Cc1c([C@@H]2CN(Cc3cnn(-c4cc(C)c5oc(=O)n(C)c5c4)c3)CCN2)ccc2c1COC2=O [Example 57-I] | condition not met |
| COc1ncnc(-n2cc(CN3C[C@@H](c4ccc5c(c4C)COC5=O)N[C@@H](C)C3)cn2)n1 [Example 194-I] | condition not met |
| COc1cc(N2CCC(CN3CCN[C@H](c4ccc5c(c4C)COC5=O)C3)C2)ncc1C#N (single isomer, unassigned) [Example 155-I] | condition met |
| Cc1nc(-n2cnc(CN3C[C@@H](c4ccc5c(c4C)COC5=O)N[C@@H](C)C3)c2)ncc1C#N [Example 164-I] | condition not met |

###

# TARGET DESC: hROMK (human Kir1.1) (Homo sapiens (Human), UniProt P48048)
# TEST SUMMARY: cell-based
# SETTINGS: CHO T-Rex hROMK stable cell line; thallium flux; 10-point concentration response curve; read-out: Human ROMK Th Flux IC50
pIC50: −log10 of the molar value.

| CHEMICAL STRING | pIC50 |
| --- | --- |
| Cc1c([C@@H]2CN(Cc3cnn(-c4cc(N5CCOC5=O)ccn4)c3)CCN2)ccc2c1COC2=O | 7.00 |
| Cc1ncc(-n2cc(CN3C[C@@H](c4ccc5c(c4C)COC5=O)N[C@@H](C)C3)cn2)cn1 | 7.00 |
| Cc1cc(-n2cnc(CN3CC[C@@H](O)[C@H](c4ccc5c(c4C)COC5=O)C3)c2)ncc1C#N | 7.54 |
| Cc1cn(-c2ncc(CN3CCN[C@H](c4ccc5c(c4C)COC5=O)C3)cc2F)cn1 | 7.62 |
| CNC(=O)c1nn(-c2cc(OC)c(C#N)cn2)cc1CN1CCN[C@H](c2ccc3c(c2C)COC3=O)C1 | 6.37 |
| COC(=O)N1CCN(Cc2cnn(-c3cc(C)c(C#N)cn3)c2)C[C@H]1c1ccc2c(c1C)COC2=O | 6.30 |
| Cc1c([C@@H]2CN(Cc3cnn(-c4cc(OC(C)C)c(C#N)cn4)c3)CCN2)ccc2c1COC2=O | 7.59 |

###

Catalogue of compounds with associated pIC50
# TARGET DESC: hROMK (human Kir1.1) (Homo sapiens (Human))
# TEST SUMMARY: cell-based
# SETTINGS: CHO T-Rex hROMK stable cell line; thallium flux; 10-point concentration response curve; read-out: Human ROMK Th Flux IC50
pIC50: −log10 of the molar value.

| COMPOUND | TARGET DESC | pIC50 |
| --- | --- | --- |
| Cc1cc(-n2cc(CN3CC(F)C(c4ccc5c(c4C)COC5=O)C3)cn2)ncc1C#N (single isomer, unassigned) | hROMK (human Kir1.1) (Homo sapiens (Human)) | 7.01 |
| COc1cc(-n2ncc(CN3C[C@@H](c4ccc5c(c4C)COC5=O)N[C@@H](C)C3)n2)ncc1C#N | hROMK (human Kir1.1) (Homo sapiens (Human)) | 7.59 |
| COc1cc(-n2cnc(CN3C[C@@H](c4ccc5c(c4C)COC5=O)N[C@@H](C)C3)c2)ccc1C#N | hROMK (human Kir1.1) (Homo sapiens (Human)) | 7.59 |
| COc1cc(-n2cnc(CN3CCN[C@H](c4ccc5c(c4C)COC5=O)C3)c2)ncc1C#N | hROMK (human Kir1.1) (Homo sapiens (Human)) | 7.44 |
| Cc1cc(-n2cc(C(O)CN3CCO[C@H](c4ccc5c(c4C)COC5=O)C3)cn2)ncc1C#N (single isomer, unassigned) | hROMK (human Kir1.1) (Homo sapiens (Human)) | 6.06 |
| Cc1c([C@@H]2CN(Cc3cnn(-c4cccc(C#N)c4)c3)CCO2)ccc2c1COC2=O | hROMK (human Kir1.1) (Homo sapiens (Human)) | 6.96 |
| Cc1c([C@@H]2CN(Cc3cnn(-c4cc(F)c5oc(=O)n(C)c5c4)c3)CCN2)ccc2c1COC2=O | hROMK (human Kir1.1) (Homo sapiens (Human)) | 7.07 |

###

# TARGET DESC: hROMK (human Kir1.1) (Homo sapiens (Human), UniProt P48048)
# TEST SUMMARY: cell-based
# Format: cell-based
# SETTINGS: whole-cell manual patch clamp, CHO T-Rex hROMK stable cell line, voltage step to -120 mV, Ba2+-subtracted hROMK current; read-out: ROMK EP IC50

| COMPOUND | IC50 [nM] |
| --- | --- |
| COc1cc(-n2ncc(CN3CC(c4ccc5c(c4C)COC5=O)NC(C)(C)C3)n2)ncc1C#N (single isomer, unassigned) [Example 190-I] | 13 |
| COc1cc(-n2cnc(CN3C[C@@H](c4ccc5c(c4C)COC5=O)N[C@@H](C)C3)c2)ccn1 [Example 126-I] | 17 |
| Cc1cc(-c2cc(CN3C[C@@H](c4ccc5c(c4C)COC5=O)N[C@@H](C)C3)no2)ncc1C#N [Example 210-I] | 20 |
| COc1nc(-n2cc(CN3C[C@@H](c4ccc5c(c4C)COC5=O)N[C@@H](C)C3)cn2)ncc1C#N [Example 99-I] | 29 |
| CCc1nn(-c2ncc(CN3CCN[C@H](c4ccc5c(c4C)COC5=O)C3)cn2)cc1C#N [Example 228-I] | 20 |
| Cc1nccc(-n2cc(CN3C[C@@H](c4ccc5c(c4C)COC5=O)N[C@@H](C)C3)n(C)c2=O)n1 [Example 173-I] | 21 |
| COc1cc(-n2ncc(CN3CCN[C@H](c4ccc5c(c4C)COC5=O)C3)n2)ncc1C#N [Example 168-I] | 29 |

###

# TARGET DESC: UniProtKB P48048
# TEST SUMMARY: cell-based
# Assay type: cell-based
# SETTINGS: whole-cell manual patch clamp, CHO T-Rex hROMK stable cell line, voltage step to -120 mV, Ba2+-subtracted hROMK current; read-out: ROMK EP IC50

| CHEMICAL STRING | IC50 |
| --- | --- |
| Cc1cc(-n2cc(CN3CCN[C@H](c4ccc5c(c4C)COC5=O)C3)nn2)ncc1C#N | 4.9 nM |
| Cc1nn(-c2ncc(CN3CCN[C@H](c4ccc5c(c4C)COC5=O)C3)cn2)cc1C#N | 13 nM |
| Cc1cc(-n2cc(CN3C[C@@H](c4ccc5c(c4C)COC5=O)N[C@@H](C)C3)nn2)ncc1C#N | 10 nM |
| COc1cc(-n2cc(CN3CC[C@@H](O)[C@H](c4ccc5c(c4C)COC5=O)C3)n(C)c2=O)ncc1C#N | 26 nM |
| Cc1nc(-n2cnc(CN3C[C@@H](c4ccc5c(c4C)COC5=O)N[C@@H](C)C3)c2)ncc1C#N | 30 nM |
| Cc1cn(-c2ccc(CN3CCO[C@H](c4ccc5c(c4C)COC5=O)C3)cn2)cn1 | 11 nM |
| Cc1nn(-c2ncc(CN3C[C@@H](c4ccc5c(c4C)COC5=O)N[C@@H](C)C3)cn2)cc1C#N | 21 nM |
